Parameter: glycan array binding signal (z-score). Scope: all listed entries.
Biological target: Fuc(a1-2)Gal
Experiment: glycan array binding signal (z-score within array); higher = stronger binding
Details: glycan notation: IUPAC condensed, linker removed
The sample as a whole holds a higher share of the strongest signals than the screen did.

{"binder": "SRS2 (Toxoplasma gondii), O15695 (protein) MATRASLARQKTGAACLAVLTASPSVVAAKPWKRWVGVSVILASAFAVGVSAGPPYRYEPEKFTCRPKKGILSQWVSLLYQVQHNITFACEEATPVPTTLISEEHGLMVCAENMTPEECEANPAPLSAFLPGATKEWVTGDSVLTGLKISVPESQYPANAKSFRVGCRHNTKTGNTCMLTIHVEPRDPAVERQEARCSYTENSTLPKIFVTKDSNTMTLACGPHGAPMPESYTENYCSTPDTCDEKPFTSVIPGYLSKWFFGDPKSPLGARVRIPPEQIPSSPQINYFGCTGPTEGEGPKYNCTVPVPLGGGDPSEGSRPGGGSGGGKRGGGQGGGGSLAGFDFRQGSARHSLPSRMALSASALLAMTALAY", "glycan array binding signal (z-score)": 0.535}
{"binder": "Mg3lysM (Mycosphaerella graminicola) (protein) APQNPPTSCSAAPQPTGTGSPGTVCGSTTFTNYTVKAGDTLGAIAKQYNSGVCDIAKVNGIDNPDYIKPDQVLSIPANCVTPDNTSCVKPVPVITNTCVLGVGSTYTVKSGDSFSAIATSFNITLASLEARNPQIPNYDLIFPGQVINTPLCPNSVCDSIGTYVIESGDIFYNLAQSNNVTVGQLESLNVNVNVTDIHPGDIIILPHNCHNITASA", "glycan array binding signal (z-score)": -0.076}
